# System: MCF-10A
# ASSAY_EXPLANATION: Antiproliferative activity against human MCF-10A cells assessed as inhibition of cell growth measured by MTS method
# Assay type: functional, cell-based
MEASURED_PARAMETER: pIC50
The meaning of pIC50 here: minus log10 of the concentration in molar units.

// field: pIC50; key: `CC(C)(Oc1cccc(N2CCC[C@@H](C(=O)N(Cc3ccc(-c4cnc5[nH]ccc5c4)cc3)C3CC3)C2)c1)C(=O)N1CCNCC1.Cl` ; value = 4.44

// field: pIC50; key: `CC(C)(Oc1cccc(N2CCC[C@@H](C(=O)N(Cc3ccc(-c4c[nH]c5ncccc45)cc3)C3CC3)C2)c1)C(=O)N1CCNCC1` ; value = 4.62

// field: pIC50; key: `CC(C)(Oc1cccc(N2CCC[C@@H](C(=O)N(Cc3ccc(-c4ccnc5[nH]ccc45)cc3)C3CC3)C2)c1)C(=O)N1CCNCC1` ; value = 4.54

* * *

# TGT: beta-catenin-B-cell lymphoma 9 protein complex (Homo sapiens, UniProt P35222)
# Sequence (P35222 whole entry, the tested form may be a part): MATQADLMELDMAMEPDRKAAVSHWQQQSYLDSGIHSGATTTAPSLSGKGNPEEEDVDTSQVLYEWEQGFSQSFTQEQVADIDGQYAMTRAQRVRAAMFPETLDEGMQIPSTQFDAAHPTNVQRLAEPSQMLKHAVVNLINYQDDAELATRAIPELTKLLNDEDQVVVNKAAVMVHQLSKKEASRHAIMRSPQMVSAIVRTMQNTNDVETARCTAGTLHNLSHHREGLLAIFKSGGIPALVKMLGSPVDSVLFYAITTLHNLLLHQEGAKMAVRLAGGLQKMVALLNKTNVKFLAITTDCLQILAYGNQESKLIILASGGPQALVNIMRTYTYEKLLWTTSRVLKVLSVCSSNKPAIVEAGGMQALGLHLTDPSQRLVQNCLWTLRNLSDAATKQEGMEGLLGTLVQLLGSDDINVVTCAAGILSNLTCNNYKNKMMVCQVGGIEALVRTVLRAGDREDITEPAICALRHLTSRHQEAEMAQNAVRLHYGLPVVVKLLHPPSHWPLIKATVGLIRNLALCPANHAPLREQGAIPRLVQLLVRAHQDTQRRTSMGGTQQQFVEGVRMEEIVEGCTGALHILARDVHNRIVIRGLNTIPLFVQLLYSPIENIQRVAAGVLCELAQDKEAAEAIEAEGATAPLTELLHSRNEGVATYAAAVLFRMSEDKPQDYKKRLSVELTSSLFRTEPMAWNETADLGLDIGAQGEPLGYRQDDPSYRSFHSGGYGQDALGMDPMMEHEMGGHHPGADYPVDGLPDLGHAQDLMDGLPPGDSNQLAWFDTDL
# Sequence (O00512 whole entry, further chain, the tested form may be a part): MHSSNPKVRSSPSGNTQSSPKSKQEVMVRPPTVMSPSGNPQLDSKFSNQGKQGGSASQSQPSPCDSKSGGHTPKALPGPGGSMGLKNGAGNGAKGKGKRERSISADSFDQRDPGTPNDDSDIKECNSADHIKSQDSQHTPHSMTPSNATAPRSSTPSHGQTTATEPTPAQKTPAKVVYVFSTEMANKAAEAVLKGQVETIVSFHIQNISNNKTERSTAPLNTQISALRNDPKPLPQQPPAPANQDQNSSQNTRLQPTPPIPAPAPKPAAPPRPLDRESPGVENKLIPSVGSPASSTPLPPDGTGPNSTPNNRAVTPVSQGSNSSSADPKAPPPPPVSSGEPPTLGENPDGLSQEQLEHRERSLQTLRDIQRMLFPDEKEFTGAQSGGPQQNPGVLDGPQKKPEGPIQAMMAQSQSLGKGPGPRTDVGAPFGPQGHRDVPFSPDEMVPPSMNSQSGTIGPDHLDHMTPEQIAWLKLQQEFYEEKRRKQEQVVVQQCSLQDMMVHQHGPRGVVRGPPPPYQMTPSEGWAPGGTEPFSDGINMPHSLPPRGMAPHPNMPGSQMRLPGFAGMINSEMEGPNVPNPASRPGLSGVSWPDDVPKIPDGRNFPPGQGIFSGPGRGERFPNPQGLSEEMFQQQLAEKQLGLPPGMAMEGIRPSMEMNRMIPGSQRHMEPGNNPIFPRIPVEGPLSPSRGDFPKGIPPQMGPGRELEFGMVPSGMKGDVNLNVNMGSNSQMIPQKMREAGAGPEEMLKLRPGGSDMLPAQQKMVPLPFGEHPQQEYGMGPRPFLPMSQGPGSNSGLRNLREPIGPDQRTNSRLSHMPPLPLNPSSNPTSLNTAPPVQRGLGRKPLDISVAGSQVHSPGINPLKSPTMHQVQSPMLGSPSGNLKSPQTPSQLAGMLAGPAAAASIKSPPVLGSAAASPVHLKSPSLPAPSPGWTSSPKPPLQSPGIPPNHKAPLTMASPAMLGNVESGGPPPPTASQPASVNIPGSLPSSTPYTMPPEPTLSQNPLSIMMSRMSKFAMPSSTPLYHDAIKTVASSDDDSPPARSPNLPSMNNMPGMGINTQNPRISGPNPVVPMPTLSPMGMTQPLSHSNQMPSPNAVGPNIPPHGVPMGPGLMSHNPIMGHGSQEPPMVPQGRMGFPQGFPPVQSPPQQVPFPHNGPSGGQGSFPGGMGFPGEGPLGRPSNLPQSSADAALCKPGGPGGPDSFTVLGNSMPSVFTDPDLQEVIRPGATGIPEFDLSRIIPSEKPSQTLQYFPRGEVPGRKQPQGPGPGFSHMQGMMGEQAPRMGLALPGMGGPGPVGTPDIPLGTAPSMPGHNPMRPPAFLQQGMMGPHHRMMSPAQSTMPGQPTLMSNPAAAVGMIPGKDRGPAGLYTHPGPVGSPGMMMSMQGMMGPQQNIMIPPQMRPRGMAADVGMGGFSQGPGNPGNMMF
# ASSAY_EXPLANATION: Inhibition of full length beta-catenin (1 to 781 residues) (unknown origin) expressed in Escherichia coli BL21 (DE3)-N-terminal biotinylated human BCL9 (350 to 375 residues) protein-protein interaction incubated for 1 hr by Alphascreen assay
The compounds listed here are annotated with their IC50.
Don't forget the unit after the number, please.

CC(C)(Oc1cccc(N2CCC[C@@H](C(=O)N(Cc3ccc(-c4cn[nH]c4)cc3)C3CC3)C2)c1)C(=O)N1CCC2(CNC2)C1: 20000 nM
CC(C)(Oc1cccc(N2CCC[C@@H](C(=O)N(Cc3ccc(-c4cnc5[nH]ccc5c4)cc3)C3CC3)C2)c1)C(=O)N1CCNCC1.Cl: 3400 nM
CC(C)(Oc1cccc(N2CCC[C@@H](C(=O)N(Cc3ccc(-c4c[nH]c5ncccc45)cc3)C3CC3)C2)c1)C(=O)N1CCNCC1: 960 nM

Next compound, IC50 to be filled in.
// field: IC50; key: `CC(C)(Oc1cccc(N2CCC[C@@H](C(=O)N(Cc3ccc(-c4ccnc5[nH]ccc45)cc3)C3CC3)C2)c1)C(=O)N1CCNCC1` ; value = 2200 nM

* * *

# TGT: beta-catenin-B-cell lymphoma 9 protein complex (Homo sapiens)
# ASSAY_EXPLANATION: Inhibition of full length beta-catenin (1 to 781 residues) (unknown origin) expressed in Escherichia coli BL21 (DE3)-N-terminal biotinylated human BCL9 (350 to 375 residues) protein-protein interaction incubated for 1 hr by Alphascreen assay
pKi: −log10 of the molar value.
Assign class 1 whenever pKi does not fall below 5; assign class 0 whenever it does.

These solved cases illustrate the format of a correct answer.
CC(C)(Oc1cccc(N2CCC[C@@H](C(=O)N(Cc3ccc(-c4cn[nH]c4)cc3)C3CC3)C2)c1)C(=O)N1C[C@H]2CNC[C@H]2C1: class 1
CC(C)(Oc1cccc(N2CCC[C@@H](C(=O)N(Cc3ccc(-c4ccnc5[nH]ccc45)cc3)C3CC3)C2)c1)C(=O)N1CCNCC1: class 1

Query: pKi >= 5 for `O=C([C@@H]1CCCN(c2cccc(OC3(C(=O)N4CCNCC4)CCCC3)c2)C1)N(Cc1ccc(-c2cn[nH]c2)cc1)C1CC1` ?
Reply: class 0

Query: pKi >= 5 for `CC(C)(Oc1cccc(N2CCC[C@@H](C(=O)N(Cc3ccc(-c4cn[nH]c4)cc3)C3CC3)C2)c1)C(=O)N1CC2(CNC2)C1` ?
Reply: class 0

Query: pKi >= 5 for O=C(C(Oc1cccc(N2CCC[C@@H](C(=O)N(Cc3ccc(-c4cn[nH]c4)cc3)C3CC3)C2)c1)c1ccccc1)N1CCNCC1 (some centres undefined) ?
Reply: class 0

Query: pKi >= 5 for `CC(C)(Oc1cccc(N2CCC[C@@H](C(=O)N(Cc3ccc(-c4cnc5[nH]ccc5c4)cc3)C3CC3)C2)c1)C(=O)N1CCNCC1.Cl` ?
Reply: class 1

Query: pKi >= 5 for `CC(C)(Oc1cccc(N2CCC[C@@H](C(=O)N(Cc3ccc(-c4cn[nH]c4)cc3)C3CC3)C2)c1)C(=O)N1CCC2(CNC2)C1` ?
Reply: class 0

Query: pKi >= 5 for `O=C([C@@H]1CCCN(c2cccc(OC3(C(=O)N4CCNCC4)CC3)c2)C1)N(Cc1ccc(-c2cn[nH]c2)cc1)C1CC1` ?
Reply: class 0

Query: pKi >= 5 for `CC(C)(Oc1cccc(N2CCC[C@@H](C(=O)N(Cc3ccc(-c4c[nH]c5ncccc45)cc3)C3CC3)C2)c1)C(=O)N1CCNCC1` ?
Reply: class 1

* * *

# TGT: CYP2D6 (Homo sapiens, UniProt P10635)
# Sequence (P10635 whole entry): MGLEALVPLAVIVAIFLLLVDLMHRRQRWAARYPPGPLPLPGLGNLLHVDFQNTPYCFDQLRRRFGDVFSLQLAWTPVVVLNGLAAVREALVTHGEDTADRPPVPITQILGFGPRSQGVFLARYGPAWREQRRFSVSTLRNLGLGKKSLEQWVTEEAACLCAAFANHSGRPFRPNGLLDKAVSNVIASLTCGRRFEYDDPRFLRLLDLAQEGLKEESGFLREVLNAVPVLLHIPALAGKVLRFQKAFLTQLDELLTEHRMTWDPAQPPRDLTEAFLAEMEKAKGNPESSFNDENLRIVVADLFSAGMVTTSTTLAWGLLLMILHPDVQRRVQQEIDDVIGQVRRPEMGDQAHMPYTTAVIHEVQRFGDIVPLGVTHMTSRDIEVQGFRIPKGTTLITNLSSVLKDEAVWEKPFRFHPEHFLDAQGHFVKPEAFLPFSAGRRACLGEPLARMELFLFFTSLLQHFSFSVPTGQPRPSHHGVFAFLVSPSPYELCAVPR
# ASSAY_EXPLANATION: Inhibition of CYP2D6 in human liver microsomes using bufuralol as substrate at 10 uM in presence of NADPH incubated for 10 mins
# Type: ADME, Microsome
# CONDITION_NOTES: probe bufuralol
The compounds listed here are annotated with their inhibition at 10 min, 10 µM.
Report the value in % with no unit label.

CC(C)(Oc1cccc(N2CCC[C@@H](C(=O)N(Cc3ccc(-c4cnc5[nH]ccc5c4)cc3)C3CC3)C2)c1)C(=O)N1CCNCC1.Cl: 54

Next compound, inhibition at 10 min, 10 µM to be filled in.
// field: inhibition at 10 min, 10 µM; key: `CC(C)(Oc1cccc(N2CCC[C@@H](C(=O)N(Cc3ccc(-c4cn[nH]c4)cc3)C3CC3)C2)c1)C(=O)N1CCNCC1` ; value = 73

* * *

The compounds listed here are annotated with their pIC50.
# ASSAY_EXPLANATION: Inhibition of Wnt/beta-catenin transactivation signalling in human SW480 cells by TOPFlash reporter gene assay
# Type: cell-based
The meaning of pIC50 here: minus log10 of the concentration in molar units.

CC(C)(Oc1cccc(N2CCC[C@@H](C(=O)N(Cc3ccc(-c4ccnc5[nH]ccc45)cc3)C3CC3)C2)c1)C(=O)N1CCNCC1: 4.82
CC(C)(Oc1cccc(N2CCC[C@@H](C(=O)N(Cc3ccc(-c4cnc5[nH]ccc5c4)cc3)C3CC3)C2)c1)C(=O)N1CCNCC1.Cl: 5.15

Next compound, pIC50 to be filled in.
// field: pIC50; key: `CC(C)(Oc1cccc(N2CCC[C@@H](C(=O)N(Cc3ccc(-c4c[nH]c5ncccc45)cc3)C3CC3)C2)c1)C(=O)N1CCNCC1` ; value = 4.96

* * *

# TGT: CYP2C9 (Homo sapiens, UniProt P11712)
# Sequence (P11712 whole entry): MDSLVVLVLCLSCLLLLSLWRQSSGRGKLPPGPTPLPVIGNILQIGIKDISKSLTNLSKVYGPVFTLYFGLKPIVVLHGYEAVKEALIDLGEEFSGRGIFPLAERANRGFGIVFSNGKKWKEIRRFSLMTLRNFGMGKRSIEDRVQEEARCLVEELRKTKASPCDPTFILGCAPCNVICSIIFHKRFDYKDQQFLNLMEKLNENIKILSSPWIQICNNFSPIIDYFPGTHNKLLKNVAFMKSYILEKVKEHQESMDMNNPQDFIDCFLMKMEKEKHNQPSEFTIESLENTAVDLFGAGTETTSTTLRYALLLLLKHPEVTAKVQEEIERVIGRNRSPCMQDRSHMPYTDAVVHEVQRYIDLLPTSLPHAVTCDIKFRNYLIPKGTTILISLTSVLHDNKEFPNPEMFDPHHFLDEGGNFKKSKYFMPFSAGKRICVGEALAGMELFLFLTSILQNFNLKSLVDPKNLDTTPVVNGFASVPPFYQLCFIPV
# ASSAY_EXPLANATION: Inhibition of CYP2C9 in human liver microsomes using tolbutamide as substrate at 10 uM in presence of NADPH incubated for 10 mins
# Type: ADME, Microsome
# CONDITION_NOTES: probe tolbutamide
The compounds listed here are annotated with their inhibition at 10 min, 10 µM.
Report the value in % with no unit label.

CC(C)(Oc1cccc(N2CCC[C@@H](C(=O)N(Cc3ccc(-c4cnc5[nH]ccc5c4)cc3)C3CC3)C2)c1)C(=O)N1CCNCC1.Cl: 91

The reported inhibition at 10 min, 10 µM value, CYP2C9 (Homo sapiens, UniProt P11712), for `CC(C)(Oc1cccc(N2CCC[C@@H](C(=O)N(Cc3ccc(-c4cn[nH]c4)cc3)C3CC3)C2)c1)C(=O)N1CCNCC1` reads 83

* * *

# TGT: beta-catenin-B-cell lymphoma 9 protein complex (Homo sapiens, UniProt P35222)
# ASSAY_EXPLANATION: Inhibition of full length beta-catenin (1 to 781 residues) (unknown origin) expressed in Escherichia coli BL21 (DE3)-N-terminal biotinylated human BCL9 (350 to 375 residues) protein-protein interaction incubated for 1 hr by Alphascreen assay
MEASURED_PARAMETER: IC50 (µM)
Report the value in µM with no unit label.

CC(C)(Oc1cccc(N2CCC[C@@H](C(=O)N(Cc3ccc(-c4cccc5[nH]ncc45)cc3)C3CC3)C2)c1)C(=O)N1CCNCC1: 2.5
CC(C)(Oc1cccc(N2CCC[C@@H](C(=O)N(Cc3ccc(-c4cn[nH]c4)cc3)C3CC3)C2)c1)C(=O)N1CC2(CNC2)C1: 44
CC(C)(Oc1cccc(N2CCC[C@@H](C(=O)N(Cc3ccc(-c4cn[nH]c4)cc3)C3CC3)C2)c1)C(=O)N1CCC2(CCNC2)C1 (some centres undefined): 12

Next compound, IC50 to be filled in.
// field: IC50; key: O=C(C(Oc1cccc(N2CCC[C@@H](C(=O)N(Cc3ccc(-c4cn[nH]c4)cc3)C3CC3)C2)c1)c1ccccc1)N1CCNCC1 (some centres undefined) ; value = 23

* * *

The compounds listed here are annotated with their inhibition at 10 min, 10 µM.
# TGT: CYP1A2 (Homo sapiens)
# Sequence (P05177 whole entry): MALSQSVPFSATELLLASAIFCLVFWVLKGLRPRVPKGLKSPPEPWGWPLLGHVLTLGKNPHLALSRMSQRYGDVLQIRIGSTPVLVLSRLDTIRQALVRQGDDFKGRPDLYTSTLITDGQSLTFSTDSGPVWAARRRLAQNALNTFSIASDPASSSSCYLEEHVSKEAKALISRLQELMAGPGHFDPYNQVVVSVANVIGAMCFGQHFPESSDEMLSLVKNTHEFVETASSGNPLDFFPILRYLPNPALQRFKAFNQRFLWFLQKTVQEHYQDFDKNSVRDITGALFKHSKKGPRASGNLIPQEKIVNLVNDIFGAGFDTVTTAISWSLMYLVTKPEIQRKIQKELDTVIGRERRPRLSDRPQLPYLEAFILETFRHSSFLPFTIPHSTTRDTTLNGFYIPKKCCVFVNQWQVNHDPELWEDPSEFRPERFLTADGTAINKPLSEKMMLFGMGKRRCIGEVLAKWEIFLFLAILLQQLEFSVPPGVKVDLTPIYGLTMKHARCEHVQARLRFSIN
# ASSAY_EXPLANATION: Inhibition of CYP1A2 in human liver microsomes using phenacetin at 10 uM in presence of NADPH incubated for 10 mins
# Assay type: ADME, Microsome
# CONDITION_NOTES: probe phenacetin
Report the value in % with no unit label.

CC(C)(Oc1cccc(N2CCC[C@@H](C(=O)N(Cc3ccc(-c4cn[nH]c4)cc3)C3CC3)C2)c1)C(=O)N1CCNCC1: 17

Next compound, inhibition at 10 min, 10 µM to be filled in.
// field: inhibition at 10 min, 10 µM; key: `CC(C)(Oc1cccc(N2CCC[C@@H](C(=O)N(Cc3ccc(-c4cnc5[nH]ccc5c4)cc3)C3CC3)C2)c1)C(=O)N1CCNCC1.Cl` ; value = 31
